Where do these numbers come from? They come from patent US6867210B2.

target: rBIIA isoform of Na+ channels (Rattus norvegicus); assay: Electrophysiological Assay 1: patch-clamp of voltage-sensitive Na+ currents in HEK-293 cells; conditions: HEK-293 cells stably expressing rBIIA; apparent antagonist dissociation constant for inactivated sodium channels
Measure: Ki (nM)

Known Ki results, listed for orientation:
NC(=O)c1nccc(-c2ccc(Oc3ccc(F)cc3)cc2)n1: 490
Fc1ccc(Oc2ccc(-c3nccc(-c4nc[nH]n4)n3)cc2)cc1: 20000
CN(C)C(=O)c1nccc(-c2ccc(Oc3ccc(F)cc3)cc2)n1: 13500

a. NC(=O)c1ccnc(-c2ccc(Oc3ccc(Cl)cc3F)cc2)n1
b. O=C(O)c1nccc(-c2ccc(Oc3ccc(F)cc3)cc2)n1
c. NC(=O)c1cccc(-c2ccc(Oc3ccc(F)cc3)cc2)n1
d. NC(=O)c1nccc(-c2ccc(Oc3ccc(F)cc3F)cc2)n1
e. NC(=O)c1ccnc(-c2ccc(Oc3ccc(F)cc3)cc2)n1
Prompt line: Sort (5 compounds) by Ki: min first. Note for the reader: the ranking is given by listing the labels in the order requested.
Response line: c, e, a, d, b
